- procedure-text: inhibitors of poly I:C-induced TLR3 signaling, primary screen, cell-based, poly I:C stimulus, luciferase, 10K MLSCN set (AID 602277)
- run-parameters: HEK293-TLR3 RL24 IRF3 luciferase reporter, at 10 µM, hits give high values
Activity calls are given as the source filed them.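 Rule for the calls: active = inhibition of the reporter signal at or above 50%; inactive = inhibition below 50%.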
A collection of molecules and their measured inhibition
measured-quantity: inhibition

INSERT INTO results (molecule, measured_quantity, result) VALUES
  ('CCN(CCCNC(=O)CC1Oc2ccc(C)cc2NC1=O)Cc1ccccc1 (configuration not stated)', 'inhibition', '30.7% (inactive)'),
  ('CCCc1nnc(NC(=O)CCC(=O)N2CCN(CCOc3ccc(C)cc3)CC2)s1', 'inhibition', '10.9% (inactive)'),
  ('CCOc1ccc(Cn2nnc(C(=O)NCc3ccc(OC)cc3)c2N)cc1', 'inhibition', '30.1% (inactive)'),
  ('CCN(CC)C(=O)CSc1nnc(-c2cc(OC)cc(OC)c2)o1', 'inhibition', '2.13% (inactive)'),
  ('COc1ccccc1C(=O)N1CCN=C1SCc1cccnc1', 'inhibition', '6.88% (inactive)'),
  ('CCCS(=O)(=O)Nc1c(C(=O)O)[nH]c2ccccc12', 'inhibition', '29% (inactive)'),
  ('O=C(Cn1nnc(-c2ccccc2)n1)Nc1ccccc1N1CCOCC1', 'inhibition', '14.8% (inactive)'),
  ('C=COC(=O)CSc1snc(SCC(=O)OC)c1C#N', 'inhibition', '18.4% (inactive)'),
  ('O=C(NCc1ccccc1)c1ccc(OC2CSC2)cc1', 'inhibition', '-14.1% (inactive)'),
  ('c1ccc(-n2ncc3c(NCc4cccs4)ncnc32)cc1', 'inhibition', '-78.7% (inactive)'),
  ('CCOC(=O)C1=C(C)Nc2nc(SCC(=O)OC)nn2C1c1cc(F)cc(F)c1 (configuration not stated)', 'inhibition', '8.56% (inactive)'),
  ('CCCc1cc(=O)[nH]c(SCc2ccccc2)n1', 'inhibition', '30% (inactive)'),
  ('CCOc1ccccc1NC(=O)CN(C)S(=O)(=O)c1cccc2nsnc12', 'inhibition', '15.6% (inactive)'),
  ('O=C(Nc1ccc(N2C(=O)C3C4C=CC(C4)C3C2=O)cc1)Nc1nncs1 (configuration not stated)', 'inhibition', '-2% (inactive)'),
  ('O=C(CN(C(=O)CCC(=O)Nc1nccs1)c1ccccc1F)NCC1CCCO1 (configuration not stated)', 'inhibition', '15.4% (inactive)'),
  ('CCOC(=O)C1CCN(c2c(Nc3ccc4c(c3)OCCO4)c(=O)c2=O)CC1', 'inhibition', '27.5% (inactive)'),
  ('COc1ccc(OC)c(C(=O)CSc2nnc(-c3ccc(OC)c(OC)c3)o2)c1', 'inhibition', '21.8% (inactive)');

Where these numbers come from: PubChem BioAssay
